- Test system: Enterococcus faecium
- Measurement description: Antibacterial activity against Enterococcus faecium 7130724 by broth microdilution method
- Type: functional
Answer each item with its documented MIC.
Write the answer as a number in µg/mL, unit excluded.

Please report the recorded MIC for CNC(=O)C[C@@H]1NC(=O)c2csc(n2)-c2ccc(-c3nc(N(CC(CC(=O)O)OC)C(=O)O[C@H]4CC[C@H](C(=O)O)CC4)cs3)nc2-c2csc(n2)-c2csc(n2)[C@H]([C@@H](O)c2ccccc2)NC(=O)CNC(=O)c2nc(sc2COC)[C@H](C(C)C)NC(=O)c2nc1sc2C (stereo not given in full) . 1

Which MIC is listed for CNC(=O)C[C@@H]1NC(=O)c2csc(n2)-c2ccc(-c3nc(NC(=O)CC[C@@H](CC(=O)O)C(=O)O)cs3)nc2-c2csc(n2)-c2csc(n2)[C@H]([C@@H](O)c2ccccc2)NC(=O)CNC(=O)c2nc(sc2COC)[C@H](C(C)C)NC(=O)c2nc1sc2C ? 32

Name the recorded MIC for CNC(=O)C[C@@H]1NC(=O)c2csc(n2)-c2ccc(-c3nc(N(CCCC(=O)O)C(=O)c4ccc(C(=O)O)cn4)cs3)nc2-c2csc(n2)-c2csc(n2)[C@H]([C@@H](O)c2ccccc2)NC(=O)CNC(=O)c2nc(sc2COC)[C@H](C(C)C)NC(=O)c2nc1sc2C . 32

Given the molecule CNC(=O)C[C@@H]1NC(=O)c2csc(n2)-c2ccc(-c3nc(N(CCOCC(=O)O)C(=O)O[C@H]4CC[C@H](C(=O)O)CC4)cs3)nc2-c2csc(n2)-c2csc(n2)[C@H]([C@@H](O)c2ccccc2)NC(=O)CNC(=O)c2nc(sc2COC)[C@H](C(C)C)NC(=O)c2nc1sc2C , what is its reported MIC? 2

What MIC value was documented for this molecule, CNC(=O)C[C@@H]1NC(=O)c2csc(n2)-c2ccc(-c3nc(N(CCCCC(=O)O)C(=O)OC4CC(C(=O)O)C4)cs3)nc2-c2csc(n2)-c2csc(n2)[C@H]([C@@H](O)c2ccccc2)NC(=O)CNC(=O)c2nc(sc2COC)[C@H](C(C)C)NC(=O)c2nc1sc2C (stereo not given in full) ? 0.25

I'd like to know its MIC. The molecule in question is CNC(=O)C[C@@H]1NC(=O)c2csc(n2)-c2ccc(-c3nc(NC(=O)N4C[C@H](CCC(=O)O)C[C@H](CCC(=O)O)C4)cs3)nc2-c2csc(n2)-c2csc(n2)[C@H]([C@@H](O)c2ccccc2)NC(=O)CNC(=O)c2nc(sc2COC)[C@H](C(C)C)NC(=O)c2nc1sc2C 4

Report MIC for CNC(=O)C[C@@H]1NC(=O)c2csc(n2)-c2ccc(-c3nc(N(CCCC(CCCCCCC(=O)O)C(=O)O)C(=O)O[C@H]4CC[C@H](C(=O)O)CC4)cs3)nc2-c2csc(n2)-c2csc(n2)[C@H]([C@@H](O)c2ccccc2)NC(=O)CNC(=O)c2nc(sc2COC)[C@H](C(C)C)NC(=O)c2nc1sc2C (stereo not given in full) please. 0.5

Need MIC of CNC(=O)C[C@@H]1NC(=O)c2csc(n2)-c2ccc(-c3nc(C4=N[C@H](C(=O)N5CCC[C@H]5C(N)=O)CO4)cs3)nc2-c2csc(n2)-c2csc(n2)[C@H]([C@@H](O)c2ccccc2)NC(=O)CNC(=O)c2nc(sc2COC)[C@H](C(C)C)NC(=O)c2nc1sc2C , thanks. 0.25

Please give the measured MIC for this molecule: CNC(=O)C[C@@H]1NC(=O)c2csc(n2)-c2ccc(-c3nc(N(C)C(=O)CCCC(=O)O)cs3)nc2-c2csc(n2)-c2csc(n2)[C@H]([C@@H](O)c2ccccc2)NC(=O)CNC(=O)c2nc(sc2COC)[C@H](C(C)C)NC(=O)c2nc1sc2C 4

What value of MIC has been reported for the following molecule? CNC(=O)C[C@@H]1NC(=O)c2csc(n2)-c2ccc(-c3nc(N(CCCC(=O)O)C(=O)OCCCC(=O)O)cs3)nc2-c2csc(n2)-c2csc(n2)[C@H]([C@@H](O)c2ccccc2)NC(=O)CNC(=O)c2nc(sc2COC)[C@H](C(C)C)NC(=O)c2nc1sc2C 0.5

I'd like to know its MIC. The molecule in question is CNC(=O)C[C@@H]1NC(=O)c2csc(n2)-c2ccc(-c3nc(NC(=O)CC[C@H](CC(=O)O)C(=O)O)cs3)nc2-c2csc(n2)-c2csc(n2)[C@H]([C@@H](O)c2ccccc2)NC(=O)CNC(=O)c2nc(sc2COC)[C@H](C(C)C)NC(=O)c2nc1sc2C 8
